Reference source for all entries: patent US10471046B2

Item-by-item account of log10 MIC
- Test system: S. aureus
- experiment-notes: Minimum inhibitory concentrations (MICs) for S. aureus of exemplary compounds (Table 2)
- Format: cell-based
- test-settings: Staphylococcus aureus, minimum inhibitory concentrations for S. aureus; read-out: MICs
Remember, log10 of MIC, in µg/mL.

Past entries and their recorded results:
compound="CC(=O)NC[C@H]1CN(c2ccc(-c3ccc(Cn4nnnc4Cl)cc3)c(F)c2)C(=O)O1 [Compound 1083]" tested_on="S. aureus" endpoint_label="log10 MIC" val=-0.30
compound="CC(=O)NC[C@H]1CN(c2ccc(-c3ccc(CNCc4c[nH]c5ccccc45)cc3)c(F)c2)C(=O)O1 [Compound 4083]" tested_on="S. aureus" endpoint_label="log10 MIC" val=0.30
compound="CC(=O)NC[C@H]1CN(c2ccc(-c3ccc(CNCc4ccoc4)cc3)c(F)c2)C(=O)O1 [Compound 4023]" tested_on="S. aureus" endpoint_label="log10 MIC" val=0.00
compound="CC(=O)NC[C@H]1CN(c2ccc(-c3ccc(Cn4ccc(N)n4)cc3)c(F)c2)C(=O)O1 [Compound 1053]" tested_on="S. aureus" endpoint_label="log10 MIC" val=0.00
compound="CC(=O)NC[C@H]1CN(c2ccc(-c3ccc(C(=O)NCCc4cnc[nH]4)cc3)c(F)c2)C(=O)O1 [Compound 4116]" tested_on="S. aureus" endpoint_label="log10 MIC" val=0.00

Ask | State, for S. aureus, measured log10 MIC of the compound listed here: CC(=O)NC[C@H]1CN(c2ccc(-c3ccc(CNCc4c(C(F)(F)F)nn(C)c4Cl)cc3)c(F)c2)C(=O)O1 [Compound 4125]
Reply | -0.30

Ask | State, for S. aureus, measured log10 MIC of the compound listed here: CC(=O)NC[C@H]1CN(c2ccc(-c3ccc(C(=O)N[C@@H](Cc4cnc[nH]4)C(N)=O)cc3)c(F)c2)C(=O)O1 [Compound 4173]
Reply | 1.51

Ask | State, for S. aureus, measured log10 MIC of the compound listed here: CC(=O)NC[C@H]1CN(c2ccc(-c3ccc(CN(Cc4csnn4)C(C)=O)cc3)c(F)c2)C(=O)O1 [Compound 4204]
Reply | 0.30

Ask | State, for S. aureus, measured log10 MIC of the compound listed here: CC(=O)NC[C@H]1CN(c2ccc(-c3ccc(CNCc4nc(C)no4)cc3)c(F)c2)C(=O)O1 [Compound 4140]
Reply | 0.30

Ask | State, for S. aureus, measured log10 MIC of the compound listed here: COC(=O)c1cc(CNCc2ccc(-c3ccc(N4C[C@H](CNC(C)=O)OC4=O)cc3F)cc2)oc1C [Compound 4120]
Reply | 0.00

Ask | State, for S. aureus, measured log10 MIC of the compound listed here: COc1nc(C)c(C=CC(=O)NCc2ccc(-c3ccc(N4C[C@H](CNC(C)=O)OC4=O)cc3F)cc2)c(OC)n1 [Compound 4003]
Reply | 2.11

Ask | State, for S. aureus, measured log10 MIC of the compound listed here: CC(=O)NC[C@H]1CN(c2ccc(-c3ccc(CNCCSc4ccccn4)cc3)c(F)c2)C(=O)O1 [Compound 5004]
Reply | 0.00

Ask | State, for S. aureus, measured log10 MIC of the compound listed here: CC(=O)NC[C@H]1CN(c2ccc(-c3ccc(CNCC(O)c4ccc(F)cc4)cc3)c(F)c2)C(=O)O1 (mixture of isomers) [Compound 4275]
Reply | -0.30

Ask | State, for S. aureus, measured log10 MIC of the compound listed here: CC(=O)NC[C@H]1CN(c2ccc(-c3ccc(Cn4ccnn4)c(F)c3)c(F)c2)C(=O)O1 [Compound 1009]
Reply | -0.60

Ask | State, for S. aureus, measured log10 MIC of the compound listed here: CC(=O)NC[C@H]1CN(c2ccc(-c3ccc(CN4CC[C@H](O)C4)cc3)c(F)c2)C(=O)O1 [Compound 1087]
Reply | 0.60
